study system: T1, EsCas13d, nuclease-dead (Eubacterium siraeum, UniProt B0MS50, R295A;H300A;R849A;H854A)
T1 sequence: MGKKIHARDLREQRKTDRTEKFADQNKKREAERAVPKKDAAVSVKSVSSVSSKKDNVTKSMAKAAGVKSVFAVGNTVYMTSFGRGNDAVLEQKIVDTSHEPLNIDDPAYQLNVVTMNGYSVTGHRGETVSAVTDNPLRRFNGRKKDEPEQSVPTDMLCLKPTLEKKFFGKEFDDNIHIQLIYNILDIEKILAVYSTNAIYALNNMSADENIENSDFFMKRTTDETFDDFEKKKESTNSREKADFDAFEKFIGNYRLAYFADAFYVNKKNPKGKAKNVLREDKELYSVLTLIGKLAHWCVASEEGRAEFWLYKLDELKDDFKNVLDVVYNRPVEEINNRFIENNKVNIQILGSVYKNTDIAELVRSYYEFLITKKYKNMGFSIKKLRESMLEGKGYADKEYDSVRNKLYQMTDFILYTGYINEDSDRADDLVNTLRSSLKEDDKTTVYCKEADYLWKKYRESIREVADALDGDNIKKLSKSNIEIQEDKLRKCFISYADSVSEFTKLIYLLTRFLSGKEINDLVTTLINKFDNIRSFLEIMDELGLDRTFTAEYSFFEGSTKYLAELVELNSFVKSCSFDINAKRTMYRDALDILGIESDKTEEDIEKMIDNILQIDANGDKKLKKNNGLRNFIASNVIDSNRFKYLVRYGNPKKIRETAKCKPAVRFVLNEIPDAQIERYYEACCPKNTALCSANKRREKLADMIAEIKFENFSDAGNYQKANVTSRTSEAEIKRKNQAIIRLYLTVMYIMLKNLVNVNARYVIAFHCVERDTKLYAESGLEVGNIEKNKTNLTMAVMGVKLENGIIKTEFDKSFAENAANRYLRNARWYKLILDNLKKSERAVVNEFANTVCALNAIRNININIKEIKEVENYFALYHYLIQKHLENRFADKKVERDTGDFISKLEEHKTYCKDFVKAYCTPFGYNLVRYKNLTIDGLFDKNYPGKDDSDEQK
experiment summary: crRNA (strand 1, pre-loaded); Mg2+; 40 mM Tris-HCl pH 7.5, 150 mM NaCl, 6 mM MgCl2, 1 mM DTT, 0.1% Tween-20, 0.2 mg/ml BSA; 25 C; 10 min per concentration, then washed
study conditions: tags: His6-TwinStrep-SUMO cleaved; N-terminal SNAP kept (SNAP-Surface 488); label: 3' end held by stalled T7 RNA polymerase
parameter measured: Kd (nM)
Expressed in nM, but write only the number.

Example results:
binder | unit spec | readout value
target 1 insC 3' of 22,insC 3' of 10 (mixed) RNA 1: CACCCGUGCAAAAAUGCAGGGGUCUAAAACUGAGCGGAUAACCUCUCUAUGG RNA 2: GGGAAUGGAUCCACAUCUACGAAUUCGUACCCAUAGAGAGGUUCAUCCGCUCACCGAGAUCGGAAGAGCACACGU | nM | 41
target 1 insG 3' of 6 (mixed) RNA 1: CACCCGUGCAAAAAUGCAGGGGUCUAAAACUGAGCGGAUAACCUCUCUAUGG RNA 2: GGGAAUGGAUCCACAUCUACGAAUUCGUACCAUAGAGAGGUUAUCCGGCUCACCGAGAUCGGAAGAGCACACGU | nM | 11.4
target 1 C6G,U8G (mixed) RNA 1: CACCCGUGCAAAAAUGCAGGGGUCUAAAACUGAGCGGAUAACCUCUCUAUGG RNA 2: GGGAAUGGAUCCACAUCUACGAAUUCGUACCAUAGAGAGGUUAGCGGCUCACCGAGAUCGGAAGAGCACACGU | nM | 12.8

Okay, next one:
Determine its reported Kd: target 1 complement block 14-16 (mixed) RNA 1: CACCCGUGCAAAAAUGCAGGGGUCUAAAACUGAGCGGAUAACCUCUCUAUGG RNA 2: GGGAAUGGAUCCACAUCUACGAAUUCGUACCAUAGUCUGGUUAUCCGCUCACCGAGAUCGGAAGAGCACACGU
61
